Reference source: paper PMC10746543

target: CDK12–cyclin K and DDB1 (Homo sapiens, UniProt Q16531+Q9NYV4, K965R); construct: His6–CDK12 (a.a. 713–1,052); full-length or beta-propeller B domain deletion (ΔBPB: a.a. 396–705 deleted) constructs of His6–DDB1ΔBPB, StrepII–Avi–DDB1, or His6–Spy–DDB1; made in house; host or cells: Trichoplusia ni High Five insect cells (baculovirus); experiment: TR-FRET ternary complex formation assay (compound titration); assay type: binding; details: source data sheet correlations; read-out: TR-FRET EC50
Sequence (Q9NYV4 713-1052 K965R): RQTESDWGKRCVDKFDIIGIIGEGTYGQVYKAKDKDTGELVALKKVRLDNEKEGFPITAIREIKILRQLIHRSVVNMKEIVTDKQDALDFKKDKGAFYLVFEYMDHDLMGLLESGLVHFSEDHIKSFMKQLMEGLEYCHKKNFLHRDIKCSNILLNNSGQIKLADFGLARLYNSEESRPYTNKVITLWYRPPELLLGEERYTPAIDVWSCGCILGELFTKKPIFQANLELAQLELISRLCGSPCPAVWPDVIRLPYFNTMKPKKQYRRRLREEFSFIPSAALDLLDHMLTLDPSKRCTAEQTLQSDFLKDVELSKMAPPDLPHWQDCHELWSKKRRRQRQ
Sequence (O75909 1-267 partner): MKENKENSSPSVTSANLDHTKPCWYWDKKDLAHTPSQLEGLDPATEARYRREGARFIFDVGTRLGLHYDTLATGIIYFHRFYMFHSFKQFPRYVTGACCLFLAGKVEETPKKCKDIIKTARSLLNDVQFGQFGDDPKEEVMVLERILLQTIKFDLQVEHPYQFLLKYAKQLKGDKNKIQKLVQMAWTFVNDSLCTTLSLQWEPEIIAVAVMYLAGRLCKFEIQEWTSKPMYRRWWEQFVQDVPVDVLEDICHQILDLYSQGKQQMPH
Sequence (Q16531 whole entry): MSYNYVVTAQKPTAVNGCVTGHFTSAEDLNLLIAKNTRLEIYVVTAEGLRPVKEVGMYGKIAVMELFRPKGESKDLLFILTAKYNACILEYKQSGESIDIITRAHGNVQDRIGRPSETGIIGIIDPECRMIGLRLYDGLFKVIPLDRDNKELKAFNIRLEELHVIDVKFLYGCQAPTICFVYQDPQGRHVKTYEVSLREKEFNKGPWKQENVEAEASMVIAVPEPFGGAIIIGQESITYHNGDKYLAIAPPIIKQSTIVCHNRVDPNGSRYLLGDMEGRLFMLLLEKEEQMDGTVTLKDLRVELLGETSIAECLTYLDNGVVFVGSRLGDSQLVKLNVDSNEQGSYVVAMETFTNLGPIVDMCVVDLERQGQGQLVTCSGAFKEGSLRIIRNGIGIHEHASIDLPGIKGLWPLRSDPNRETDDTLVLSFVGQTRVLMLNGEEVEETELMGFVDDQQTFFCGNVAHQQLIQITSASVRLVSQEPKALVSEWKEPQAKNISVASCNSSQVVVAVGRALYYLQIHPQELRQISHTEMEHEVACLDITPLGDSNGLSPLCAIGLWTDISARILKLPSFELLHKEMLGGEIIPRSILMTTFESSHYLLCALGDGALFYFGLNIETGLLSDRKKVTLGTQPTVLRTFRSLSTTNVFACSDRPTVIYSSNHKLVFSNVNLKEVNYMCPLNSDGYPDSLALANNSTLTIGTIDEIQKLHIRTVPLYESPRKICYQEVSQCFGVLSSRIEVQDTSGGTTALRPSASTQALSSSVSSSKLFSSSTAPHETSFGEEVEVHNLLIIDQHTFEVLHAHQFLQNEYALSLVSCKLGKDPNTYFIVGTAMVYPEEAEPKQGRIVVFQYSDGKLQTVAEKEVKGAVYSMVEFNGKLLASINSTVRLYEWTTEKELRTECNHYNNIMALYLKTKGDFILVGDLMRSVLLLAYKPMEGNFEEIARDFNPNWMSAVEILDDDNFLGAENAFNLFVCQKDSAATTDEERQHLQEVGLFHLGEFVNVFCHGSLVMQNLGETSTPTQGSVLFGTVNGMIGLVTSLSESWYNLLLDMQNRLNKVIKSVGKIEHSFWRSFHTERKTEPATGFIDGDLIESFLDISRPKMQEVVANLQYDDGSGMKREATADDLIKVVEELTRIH
Please provide measured pEC50 for the entries that follow.
Answers are plain numbers, as −log10 of the molar value.

Examples with their reported pEC50 follow.
CC[C@H](CO)Nc1nc(NCCCCCc2ccccc2)c2ncn(C(C)C)c2n1; 6.54
CC[C@H](CO)Nc1nc(NCc2nc3cc(Cl)c(Cl)cc3[nH]2)c2ncn(-c3cnn(C)c3)c2n1; 7.71
O=C(CSc1nnc2c(n1)[nH]c1ccccc12)Nc1ccc(Cl)cn1; 7.08
COc1ccc(C)cc1N1C[C@@H](C(=O)Nc2nc3ccccc3[nH]2)CC1=O; 6.75

Please look at the following compound next.
So what does the record say about pEC50 for "CC[C@H](CO)Nc1nc(NCc2ccc(-c3ccccn3)c(=O)[nH]2)c2ncn(C(C)C)c2n1" ?
7.67
